Test system: T-47D breast
Assay: NCI tumour cell line growth inhibition, 48 h; in the data active means GI50 below about 0.43 µM; inactive means the rest
Hi there, use one of these labels in your reply, thanks! active, inactive

compound: CN(C)CC/C=C1\c2ccccc2Sc2ccc(Cl)cc21
assigned label: inactive

compound: O=C1C=C(Nc2ccccc2)c2ncccc2C1=O
assigned label: inactive

compound: CCN(Cc1ccc(F)cc1)c1ccc(CO)c(Cl)c1
assigned label: active

compound: COc1cccc(-c2nn(-c3ccccc3)cc2-c2ccnc(NCCNS(=O)(=O)c3ccc(C(F)(F)F)cc3)c2)c1
assigned label: inactive

compound: CCC1CCc2nc3sc(C(=O)Nc4ccccc4F)c(N)c3cc2C1 (stereo unspecified)
assigned label: inactive

compound: CCCCCCN(CCCCCC)C(=N)c1ccnc2ccccc12
assigned label: inactive

compound: COc1cc(N2CCC(N3CCN(C)CC3)CC2)ccc1Nc1ncc(Cl)c(Nc2ccccc2P(C)(C)=O)n1
assigned label: inactive

compound: Nc1ccccc1NC(=O)c1ccc(CSc2nc(N3CCOCC3)c3cccn3n2)cc1
assigned label: inactive

compound: COc1ccc(OC)c(/C=C/c2nnc(Nc3ccc(Cl)cc3)o2)c1
assigned label: inactive

compound: COc1cc2c(c(OC)c1OC)-c1ccc(OC)c(=O)cc1[C@@H](NC(=O)CCl)CC2
assigned label: inactive

Then this compound:
Enquiry: Which outcome did this test record for the compound C[C@H]1CCC/C=C/[C@@H]2C[C@H](O)C[C@H]2[C@H](O)[C@H](S(=O)c2ccc(O)cc2)CC(=O)O1 (stereo partly specified) ?
Return: active

* * *

Tested on: NCI-H226 lung
Experiment: NCI tumour cell line growth inhibition, 48 h
Measured TGI accompanies every entry in the list below.
Give just the numeric value; µM need not be written.

Some solved cases for reference:
compound: CC(=O)O[C@H]1CC[C@H]2[C@@H]3CCc4cc(O)c(I)cc4[C@H]3CC[C@]12C
experimental result: 30.7
--
compound: CCN(Cc1ccc(F)cc1)c1ccc(CO)c(Cl)c1
experimental result: 0.116
--
compound: Cc1cc(NC(=O)c2ccc(NS(=O)(=O)CCO)cc2N2CCC3(CC2)CC3)nc(N2CCC(F)(F)CC2)n1
experimental result: 29.3

Enquiry: Entry CC(C)[Si](OC12CCC(CC1O)CC2C(=O)O)(C(C)C)C(C)C (stereo not given) : reported TGI = ?
Return: 31.6

* * *

System: RPMI-8226 leukemia
Assay: NCI tumour cell line growth inhibition, 48 h
Measured TGI accompanies every entry in the list below.

compound: COC(=O)c1cccc(NC(=O)Nc2ccc3oc(=O)c4ccccc4c3c2)c1
TGI: > 100 µM
//
compound: NCCCNc1ccc2c(c1)[n+]([O-])c1ccccc1[n+]2[O-]
TGI: 54.4 µM
//
compound: O=C(NNC(=S)Nc1ccccc1)C12CC3CC(CC(C3)C1)C2
TGI: > 100 µM
//
compound: O=c1ncc(-c2ccc(C(F)(F)F)cc2)c(NC2CCCCCC2)[nH]1
TGI: 39.6 µM
//
compound: O=S(=O)(O)c1cc(S(=O)(=O)O)c2c(N=Nc3cccc4ccccc34)c(O)ccc2c1
TGI: > 100 µM

Enquiry: Entry COc1ccccc1C1C2=C(COC2=O)OC(C)(C)Oc2cc3c(cc21)OCO3 (stereo unspecified) : reported TGI = ?
Return: > 60.7 µM

Enquiry: Entry COC(=O)c1cc(Br)c(C(=O)C(Cl)(Cl)Cl)[nH]1 : reported TGI = ?
Return: > 100 µM

Enquiry: Entry COc1ccccc1/C=C/C(=O)c1sc(-c2cccnc2)nc1C : reported TGI = ?
Return: > 100 µM

Enquiry: Entry CC(C)[Si](OC12CCC(CC1O)CC2C(=O)O)(C(C)C)C(C)C (stereo unspecified) : reported TGI = ?
Return: 58.3 µM

Enquiry: Entry CNC(=O)Nc1cc2c3c(c1)CCCN3CCC2 : reported TGI = ?
Return: > 10 µM

Enquiry: Entry Nn1c(CCCl)nc2c(Br)cc(Br)cc2c1=O : reported TGI = ?
Return: 58.5 µM
